Where do the numbers come from? From ChEMBL document CHEMBL2010757.

As an illustration, consider measured IC50 for compounds on Butyrylcholinesterase (Equus caballus, UniProt Q9N1N9).
Sequence (Q9N1N9 whole entry): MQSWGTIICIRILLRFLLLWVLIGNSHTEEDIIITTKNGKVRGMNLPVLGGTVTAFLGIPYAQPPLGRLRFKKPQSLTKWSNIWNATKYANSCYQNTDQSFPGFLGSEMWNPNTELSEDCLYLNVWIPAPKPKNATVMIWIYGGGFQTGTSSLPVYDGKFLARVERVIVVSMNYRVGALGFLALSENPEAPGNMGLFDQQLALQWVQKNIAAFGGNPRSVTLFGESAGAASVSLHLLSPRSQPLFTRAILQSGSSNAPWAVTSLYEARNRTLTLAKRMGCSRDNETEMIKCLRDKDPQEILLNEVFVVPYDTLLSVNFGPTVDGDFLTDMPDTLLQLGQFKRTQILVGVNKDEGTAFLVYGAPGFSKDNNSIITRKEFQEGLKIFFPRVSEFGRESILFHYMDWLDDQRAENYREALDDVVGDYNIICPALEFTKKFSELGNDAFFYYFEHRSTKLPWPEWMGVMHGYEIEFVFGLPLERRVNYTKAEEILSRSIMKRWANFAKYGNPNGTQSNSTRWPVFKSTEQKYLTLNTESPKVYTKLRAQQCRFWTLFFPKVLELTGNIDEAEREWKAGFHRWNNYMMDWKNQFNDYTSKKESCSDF

Compound	Output unit	IC50
CC(C)=CCC/C(C)=C/Cc1c(O)cc2c(c1O)C(=O)C[C@@H](c1ccc(O)cc1)O2 [BONANNIONE A]	µM	20.6
COc1ccc([C@H]2Oc3cc(O)c(C/C=C(\C)CCC=C(C)C)c(O)c3C(=O)[C@@H]2O)cc1O	µM	12.7
CNC(=O)Oc1ccc2c(c1)[C@]1(C)CCN(C)[C@@H]1N2C [PHYSOSTIGMINE]	µM	3.7
COc1cc([C@H]2Oc3cc(O)c(C/C=C(\C)CCC=C(C)C)c(O)c3C(=O)[C@@H]2O)ccc1O	µM	11.2
